Biological target: Beta-secretase 1 (Homo sapiens)
Sequence (P56817 whole entry): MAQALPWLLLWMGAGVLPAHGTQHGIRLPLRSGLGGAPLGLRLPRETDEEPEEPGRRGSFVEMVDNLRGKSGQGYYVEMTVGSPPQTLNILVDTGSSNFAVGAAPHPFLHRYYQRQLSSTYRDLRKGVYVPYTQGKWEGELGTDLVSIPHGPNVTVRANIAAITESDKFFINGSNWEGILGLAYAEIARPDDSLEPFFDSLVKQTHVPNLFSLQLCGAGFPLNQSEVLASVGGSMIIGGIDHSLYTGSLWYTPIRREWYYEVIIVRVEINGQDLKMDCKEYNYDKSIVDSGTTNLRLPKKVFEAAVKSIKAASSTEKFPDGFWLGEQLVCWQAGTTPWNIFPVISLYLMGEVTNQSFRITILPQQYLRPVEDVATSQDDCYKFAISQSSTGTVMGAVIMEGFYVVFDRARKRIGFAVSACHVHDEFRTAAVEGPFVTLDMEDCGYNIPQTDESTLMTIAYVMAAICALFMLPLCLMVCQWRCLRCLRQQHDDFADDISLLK
Assay: Inhibition of BACE1 at 50 uM after 2 hrs by FRET assay
READOUT TYPE: inhibition (%)

compound_structure_string=Cc1cccc(NC(=O)c2cccc(NC(=O)C[n+]3ccccc3)c2)c1 measurement=61

I. COc1ccc(NS(=O)(=O)c2cccc(NC(=O)C[n+]3ccccc3)c2)cc1
II. COc1ccc(NS(=O)(=O)c2cccc(NC(=O)C[n+]3cccc(C(N)=O)c3)c2)cc1
III. Cc1ccc(NC(=O)c2cccc(NC(=O)C[n+]3cccc(C(=O)NCCc4ccccc4)c3)c2)cc1
Your job: order these 3 records by inhibition, ascending. Would you mind listing the labels in the order requested?
II, I, III

P. O=C(C[n+]1cccc(C(=O)NCCc2ccccc2)c1)Nc1cccc(NC(=O)c2ccccc2)c1
Q. COc1ccc(NC(=O)c2cccc(NC(=O)C[n+]3cccc(C(N)=O)c3)c2)cc1
I'd appreciate it if you could identify which of P and Q has the greater inhibition. Give the label of your selection.
Q

1. Cc1ccc(NC(=O)c2cccc(NC(=O)C[n+]3ccccc3)c2)cc1
2. NC(=O)c1ccc[n+](CC(=O)Nc2cccc(C(=O)Nc3ccc(Cl)cc3)c2)c1
I'd appreciate it if you could identify which of 1 and 2 has the greater inhibition. Give the label of your selection.
2
(2: 64%, 1: 42%)
